# System: CEM cells HIV-1 protection, formazan growth assay
# Assay remarks: NCI AIDS Antiviral Assay
# Condition: measured here: growth of uninfected CEM cells
pIC50: −log10 of the molar value.
Field: pIC50. Provide a value for each of the compounds that follow.

Here is how some compounds turned out for pIC50.
Compound: CCOC(OCC)C(CC)[Se]c1ccccc1 (stereo not drawn)
pIC50: < 4.06
//
Compound: Cc1ccc(NC(=O)CCc2nnc3s/c(=C\C=C\c4ccccc4)c(=O)n23)cc1
pIC50: < 4.21

Incoming: Tell me pIC50 of N#C/C(=C1\SC(=O)CN1c1ccccc1)c1nc2ccccc2o1 when tested on CEM cells HIV-1 protection, formazan growth assay.
Outgoing: < 3.70
